Tested on: Fibroblast
Assay: Incucyte cell viability with human fibroblast; note: unitless GR value; below 1 slowed growth and below 0 cell loss
Assay type: toxicity, cell-based
Conditions: 6 h, 10 µM, compound concentration 10 uM, replicate number 2
quantityName: Growth Rate

• O=C(O)c1cc(F)c2nc(N3[C@@H]4CC[C@H]3C[C@@H](OCc3c(-c5ccccc5OC(F)(F)F)noc3C3CC3)C4)sc2c1 [TROPIFEXOR] = 0.98
• CNC(=O)c1cc(C(=O)NC2CC2)cn(Cc2ccccc2)c1=O [GSK620] = 0.25
• Cn1c(=O)n(CCCO)c(=O)c2c1nc(Oc1cccc(Cl)c1)n2Cc1ccc(Cl)cc1 = -0.99

Query block: So what's the measured Growth Rate for this one? CCCCCCCN(CCc1ccc(SC(C)(C)C(=O)O)cc1)C(=O)Nc1ccc(F)cc1F [GSK-9578]
Result block: 0.55

Query block: So what's the measured Growth Rate for this one? O=C1NC(c2cccc([N+](=O)[O-])c2)=CCN1c1ccccc1O [ICILLIN]
Result block: 0.04

Query block: So what's the measured Growth Rate for this one? COc1cc(-c2cncc(-c3ccc(N4CCN(C(C)C)CC4)cc3)c2C)cc(F)c1C(=O)N1CCCC1
Result block: -0.22

Query block: So what's the measured Growth Rate for this one? CCCC(=O)C1CCN(c2ncnc3c2CN(C(=O)c2ccc(-c4ccccc4)cc2)CC3)CC1
Result block: -1

Query block: So what's the measured Growth Rate for this one? O=C(Cc1ccccc1)Nc1nnc(N2CC[C@@H]3[C@H]2CN3c2cccnn2)s1 [A-426]
Result block: 0.16

* * *

Test system: U2OS
Experiment: Incucyte cell viability with U2OS; note: unitless GR value; below 1 slowed growth and below 0 cell loss
Format: toxicity, cell-based
Conditions: human, 24 h, 10 µM, compound concentration 10 uM, replicate number 2
quantityName: Growth Rate
Please reply with the value in numeric form only.

* CCC(=N\O)/C(C)=C/c1ccc(F)cc1 | 0.79
* Cc1ccc(NC(=O)c2ccc3c(c2)OCCO3)cc1NC(=O)c1ccc2nc(OCCN3CCCC3)ccc2c1 | -0.01
* COc1c(NC(=O)c2cc3cccc(Oc4ccnc(C(=O)N5CCN(C)CC5)c4)c3n2C)cc(C(C)(C)C)cc1NS(C)(=O)=O | 0.69
* CS(C)(=O)=Nc1ccc(-c2ccc(-c3nc4[nH]c(O[C@@H]5CO[C@H]6[C@@H]5OC[C@H]6O)nc4cc3Cl)cc2)cc1 | 0.98
* CN(C)C/C=C/C(=O)Nc1cc2c(Nc3ccc(F)c(Cl)c3)ncnc2cc1OC[C@@H]1CCCO1 | -0.19

Query block: So what's the measured Growth Rate for this one? COP(=O)(CCC(N)C(=O)O)Oc1cccc(CC(=O)O)c1 (configuration not stated)
Result block: 0.93

Query block: So what's the measured Growth Rate for this one? O=C(Nc1cccc(Nc2nccc(Nc3cccc(C(F)(F)F)c3)n2)c1)C1CC1
Result block: -0.1

* * *

Test system: U2OS
Experiment: Incucyte cell viability with U2OS; note: unitless GR value; below 1 slowed growth and below 0 cell loss
Type: toxicity, cell-based
Details: human, 6 h, 10 µM, compound concentration 10 uM, replicate number 1
Consider the reported Growth Rate of an entry and match it to a band in low range: < -0.3; mid range: ≥ -0.3 and < 0.7; high range: ≥ 0.7

Worked cases, answers included:
- CC(C(=O)Nc1cc(C#N)ccc1CCCC(=O)O)c1ccc(F)c2ccccc12 (centres undefined): mid range
- COc1ccccc1[C@@H]1CNCCC12CCN(C(=O)[C@](OC)(c1ccccc1)C(F)(F)F)CC2: mid range
- NC(=O)c1ccc2[nH]c(-c3ccc(Oc4ccc(Cl)cc4)cc3)nc2c1: mid range
- COc1c(C(=O)/C=C/c2ccccc2)c(O)c(OC)c2occc12: high range
- c1cc(-c2cnn3cc(-c4ccc(N5CCNCC5)cc4)cnc23)c2cccnc2c1: low range

Query block: Given CCOC(=O)Nc1ccc2c(c1)N(C(=O)CN(CC)CC)c1ccccc1CC2 , name the class its Growth Rate places it in.
Result block: high range

Query block: Given COc1ccc(-n2nc(C(F)(F)F)cc2-c2ccc(Cl)cc2)cc1 , name the class its Growth Rate places it in.
Result block: mid range

Query block: Given CCc1ccc(-c2ncn(CC3(F)CCN(C)CC3)c2-c2ccnc3[nH]ccc23)nc1 , name the class its Growth Rate places it in.
Result block: mid range

Query block: Given CC(=O)Nc1c(F)cc(C(=O)N[C@H]2CC[C@H](O)CC2)cc1O[C@@H](C)c1ccccc1 , name the class its Growth Rate places it in.
Result block: low range

The measurements presented in this section are drawn from ChEMBL document CHEMBL5303304.
